# credit: PubChem BioAssay AID743016

Target Or System: Mas-related G-protein coupled receptor member X1 (Homo sapiens)
Assay Comment: MrgX1 positive allosteric modulators, dose response, cell-based, HEK293, calcium flux, BAM8-22 (AID 743016)
Protocol Conditions: HEK293-MrgX1, Fluo4 calcium flux, BAM8-22 potentiation; with BAM 0.1 µM
Property Label: pEC50
Entry type: numeric. Quantity: pEC50, the -log10 of concentration in molar units.

Worked set:
Test Smiles	Target Or System	Measured Result
COC(=O)c1ccccc1NC(=O)c1ccccc1N(C)S(C)(=O)=O	Mas-related G-protein coupled receptor member X1 (Homo sapiens)	5.80
COc1ccc(Cl)cc1NC(=O)c1ccccc1NS(C)(=O)=O	Mas-related G-protein coupled receptor member X1 (Homo sapiens)	6.00
COc1ccc(C)cc1NC(=O)c1ccccc1NS(C)(=O)=O	Mas-related G-protein coupled receptor member X1 (Homo sapiens)	5.63
CCOc1ccccc1NC(=O)c1ccccc1NS(=O)(=O)CC1CC1	Mas-related G-protein coupled receptor member X1 (Homo sapiens)	5.35

Query: Report pEC50 under test system Mas-related G-protein coupled receptor member X1 (Homo sapiens) for CSc1ccccc1NC(=O)c1ccccc1NS(C)(=O)=O .
Result: 6.38

---

Target Or System: Mas-related G-protein coupled receptor member X1 (Homo sapiens)
Assay Comment: MrgX1 positive allosteric modulators, dose response, cell-based, HEK293, calcium flux, BAM8-22 (AID 743016)
Protocol Conditions: HEK293-MrgX1, Fluo4 calcium flux, BAM8-22 potentiation; with BAM 0.1 µM
Property Label: pEC50
Lab note: report pEC50 as minus log10 of the concentration in molar units, number only.

Below, 3 molecules whose answers are already recorded.
Test Smiles	Property Label	Measured Result
CCOc1ccccc1NC(=O)c1ccccc1N(C)S(C)(=O)=O	pEC50	5.86
COc1ccccc1NC(=O)c1ccccc1NS(C)(=O)=O	pEC50	5.51
CSc1ccccc1NC(=O)c1ccccc1N(C)S(C)(=O)=O	pEC50	6.30

Now consider the entry below.
Query: Hello, please tell me recorded pEC50 for this one: CCOc1ccccc1NC(=O)c1ccccc1NS(C)(=O)=O
Result: 5.72

---

Target Or System: Mas-related G-protein coupled receptor member X1 (Homo sapiens) (UniProt Q96LB2)
Sequence (Q96LB2 whole entry, looked up): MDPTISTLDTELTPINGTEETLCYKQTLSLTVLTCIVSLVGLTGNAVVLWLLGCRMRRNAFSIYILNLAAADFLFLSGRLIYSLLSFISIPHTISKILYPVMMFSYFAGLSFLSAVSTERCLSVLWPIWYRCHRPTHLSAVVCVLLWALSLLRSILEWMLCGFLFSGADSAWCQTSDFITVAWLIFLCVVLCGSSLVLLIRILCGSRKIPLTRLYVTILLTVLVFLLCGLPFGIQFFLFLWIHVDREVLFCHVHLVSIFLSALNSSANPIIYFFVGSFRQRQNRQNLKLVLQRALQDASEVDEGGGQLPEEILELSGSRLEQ
Assay Comment: MrgX1 positive allosteric modulators, dose response, cell-based, HEK293, calcium flux, BAM8-22 (AID 743016)
Protocol Conditions: HEK293-MrgX1, Fluo4 calcium flux, BAM8-22 potentiation; with BAM 0.1 µM
pEC50: −log10 of the molar value.
Lab note: anything with pEC50 at or over 6 counts as rule met; the rest go in rule not met.

Test Smiles	Target Or System	Answer Label
CCOc1ccccc1NC(=O)c1ccccc1NS(=O)(=O)CCCl	Mas-related G-protein coupled receptor member X1 (Homo sapiens) (UniProt Q96LB2)	rule met
COc1ccc(NC(=O)c2ccccc2NS(=O)(=O)c2cccnc2Cl)c(OC)c1	Mas-related G-protein coupled receptor member X1 (Homo sapiens) (UniProt Q96LB2)	rule not met
CCOc1ccccc1NC(=O)c1ccccc1NS(=O)(=O)C(C)C	Mas-related G-protein coupled receptor member X1 (Homo sapiens) (UniProt Q96LB2)	rule not met

Query: Identify whether the reported pEC50 of the following molecule is 6 or greater: COc1ccc(NC(=O)c2ccccc2NS(C)(=O)=O)c(OC)c1
Result: rule met

Query: Say whether CCOc1ccccc1NC(=O)c1ccccc1NS(=O)(=O)C1CC1 shows pEC50 of 6 or more.
Result: rule met
